Molecular target: T1, human CD40L, membrane-bound on cells (human, UniProt P29965 1-261)
T1 sequence: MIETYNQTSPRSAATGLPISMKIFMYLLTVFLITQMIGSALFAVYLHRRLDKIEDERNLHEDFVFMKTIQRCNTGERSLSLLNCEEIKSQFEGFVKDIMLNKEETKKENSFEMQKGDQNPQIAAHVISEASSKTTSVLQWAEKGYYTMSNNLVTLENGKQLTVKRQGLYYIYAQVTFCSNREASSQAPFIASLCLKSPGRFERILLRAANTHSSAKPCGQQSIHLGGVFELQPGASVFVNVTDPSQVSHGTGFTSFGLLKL
Assay: cell-based or functional assay
observable: T-B cell MLR IL-6 EC50 (nM)

Examples with answers:
{"columns": ["binder", "endpoint-result"],
 "data": [
  ["2h572-635-CT Long Fc (Fc fusion, not shown: linker and CT Long Fc (CT-L2)) EVQLLESGGGLVQPGGSLRLSCAASGFTFNWELMGWARQAPGKGLEWVSGIEGPGDVTYYADSVKGRFTISRDNSKNTLYLQMNSLRAEDTAVYYCVKVGKDSKSDYRGQGTLVTVSS", 0.13],
  ["2h572-608-CT Long Fc (Fc fusion, not shown: linker and CT Long Fc (CT-L2)) EVQLLESGGGLVQPGGSLRLSCAASGFTFNWELMGWARQAPGKGLEWVSGIEGPGDVTYYADSVKGRFTISRDNSKNTLYLQMNSLRAEDTAVYYCVKVGKESNSDYRGQGTLVTVSS", 0.38]
]}

P: 2h572-619-Ctlong Fc (Fc fusion, not shown: linker and CT Long Fc (CT-L2)) EVQLLESGGGLVQPGGSLRLSCAASGFTFNWQLMGWVRQAPGKGLEWVSGIEGPGDVTYYADSVKGRFTISRDNSKNTLYLQMNSLRAEDTAVYYCVKVGKDSRSDYRGQGTLVTVSS
Q: 2h572-614-CT Long Fc (Fc fusion, not shown: linker and CT Long Fc (CT-L2)) EVQLLESGGGLVQPGGSLRLSCAASGFTFNWQLMGWVRQAPGKGLEWVSGIEGPGDVTYYADSVKGRFTISRDNSKNTLYLQMNSLRAEDTAVYYCVKVGKDAKSDYRGQGTLVTVSS
R: 2h572-634-CT Long Fc (Fc fusion, not shown: linker and CT Long Fc (CT-L2)) EVQLLESGGGLVQPGGSLRLSCAASGFTFNWELMGWARQAPGKGLEWVSGIEGPGDVTYYADSVKGRFTISRDNSKNTLYLQMNSLRAEDTAVYYCVKVGKDSRSDYRGQGTLVTVSS
Ask: Place the items in sequence of falling T-B cell MLR IL-6 EC50. Give the labels in the order specified.
Reply: P, Q, R
